Origin of the recorded values: paper PMC4297288

Biological target: α1β1γ2 GABAA receptor (β1 subunit) (Rattus norvegicus)
Construct: gene Gabrb1; recombinant α1β1γ2 receptor expressed in Xenopus laevis oocytes; with GABAA α1 (Gabra1) and γ2 (Gabrg2) subunits
Sequence (P15431 26-474): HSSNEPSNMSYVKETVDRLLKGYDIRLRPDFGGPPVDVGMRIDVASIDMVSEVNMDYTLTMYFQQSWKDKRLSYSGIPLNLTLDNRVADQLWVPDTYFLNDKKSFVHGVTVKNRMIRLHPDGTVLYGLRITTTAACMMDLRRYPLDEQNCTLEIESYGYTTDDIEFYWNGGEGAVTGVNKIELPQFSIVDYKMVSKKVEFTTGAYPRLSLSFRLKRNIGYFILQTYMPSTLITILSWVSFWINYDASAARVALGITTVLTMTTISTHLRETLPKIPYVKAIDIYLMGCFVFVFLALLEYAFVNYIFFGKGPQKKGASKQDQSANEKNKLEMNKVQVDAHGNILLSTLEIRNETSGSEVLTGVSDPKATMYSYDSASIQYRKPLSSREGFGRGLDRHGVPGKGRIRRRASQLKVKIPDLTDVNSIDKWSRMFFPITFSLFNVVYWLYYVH
Sequence (P62813 28-455 partner): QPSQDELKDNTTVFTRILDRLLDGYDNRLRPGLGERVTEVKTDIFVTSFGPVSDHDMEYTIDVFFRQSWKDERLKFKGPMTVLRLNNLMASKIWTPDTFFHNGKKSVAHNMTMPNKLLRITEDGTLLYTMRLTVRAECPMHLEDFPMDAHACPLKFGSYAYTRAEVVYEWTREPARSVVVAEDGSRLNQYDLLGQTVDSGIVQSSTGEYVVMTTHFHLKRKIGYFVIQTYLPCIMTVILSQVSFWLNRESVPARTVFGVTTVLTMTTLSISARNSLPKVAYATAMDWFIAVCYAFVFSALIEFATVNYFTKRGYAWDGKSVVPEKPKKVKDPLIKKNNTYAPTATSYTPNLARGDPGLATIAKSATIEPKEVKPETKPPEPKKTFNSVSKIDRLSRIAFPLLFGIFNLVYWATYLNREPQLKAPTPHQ
Sequence (P18508 39-466 partner): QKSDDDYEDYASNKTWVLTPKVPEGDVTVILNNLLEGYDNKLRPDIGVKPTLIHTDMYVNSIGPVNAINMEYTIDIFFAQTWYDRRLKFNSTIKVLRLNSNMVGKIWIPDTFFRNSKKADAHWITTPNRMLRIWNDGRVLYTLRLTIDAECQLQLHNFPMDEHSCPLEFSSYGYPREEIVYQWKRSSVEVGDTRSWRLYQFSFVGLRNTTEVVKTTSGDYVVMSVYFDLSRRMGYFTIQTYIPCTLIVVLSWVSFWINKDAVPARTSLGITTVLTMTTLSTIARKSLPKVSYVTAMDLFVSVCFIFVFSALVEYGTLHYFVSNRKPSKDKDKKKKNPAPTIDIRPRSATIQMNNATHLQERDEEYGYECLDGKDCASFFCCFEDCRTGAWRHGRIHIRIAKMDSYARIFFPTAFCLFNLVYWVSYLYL
Assay: two-electrode voltage clamp, potentiation of IGABA at GABA EC10-20
Format: cell-based
MEASURED PROPERTY: pEC50
# pEC50 is unitless: minus log10 of the molar concentration; print number only

The compound `C=CCc1ccc(O)c(-c2ccc(O)c(CC=C)c2)c1` showed pEC50 equal to 4.70

----------
Target: α1β2γ2 GABAA receptor (β2 subunit) (Rattus norvegicus, UniProt P63138)
Construct: gene Gabrb2; recombinant α1β2γ2 receptor expressed in Xenopus laevis oocytes; with GABAA α1 (Gabra1) and γ2 (Gabrg2) subunits
Sequence (P63138 26-474, one chain of several): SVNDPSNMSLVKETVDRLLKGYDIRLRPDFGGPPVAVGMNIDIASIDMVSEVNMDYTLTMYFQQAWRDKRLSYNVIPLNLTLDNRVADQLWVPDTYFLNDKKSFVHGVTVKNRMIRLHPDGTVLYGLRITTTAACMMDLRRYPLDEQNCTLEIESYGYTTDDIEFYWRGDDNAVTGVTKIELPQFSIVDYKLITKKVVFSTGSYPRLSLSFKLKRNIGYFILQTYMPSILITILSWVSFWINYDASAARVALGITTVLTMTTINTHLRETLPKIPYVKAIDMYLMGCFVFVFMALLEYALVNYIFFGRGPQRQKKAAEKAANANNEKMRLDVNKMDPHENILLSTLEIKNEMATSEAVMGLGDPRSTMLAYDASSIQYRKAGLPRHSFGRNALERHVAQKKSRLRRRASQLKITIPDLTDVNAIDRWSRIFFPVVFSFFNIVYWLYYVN
Assay: two-electrode voltage clamp, potentiation of IGABA at GABA EC10-20
Type: cell-based
MEASURED PROPERTY: EC50 (µM)
Number in µM, nothing else.

The compound C=CCc1ccc(O)c(-c2ccc(O)c(CC=C)c2)c1 [compound 2, honokiol] showed EC50 equal to 20
